All values here come from PubChem BioAssay.

experiment: HUVEC growth inhibition – cell-based, human, primary screen (AID 575); settings: HUVEC proliferation, CellTiter-Glo luminescence, 72 h; at 10 µM; active compounds read low;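 further: 100% = median of untreated cell wells with 0.1% DMSO on each plate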
Hi there, I'd appreciate the recorded viability for every entry that follows.
Kindly provide the numeric value in % only, without the unit symbol.

The compound COc1ccc(CCNC(=O)CSc2nnnn2-c2ccccc2OC)cc1OC showed viability equal to 102

The compound COc1ccccc1N(CC(=O)NCc1ccccn1)S(C)(=O)=O showed viability equal to 89.2

The compound CN(C(=O)c1ccco1)c1nnc(C23CC4CC(CC(C4)C2)C3)s1 showed viability equal to 60.3

The compound Cc1cc(C)n2nc(S(=O)(=O)N(C)c3ccccc3)nc2n1 showed viability equal to 88.2

The compound Cn1c(=O)c(=O)n(C)c2cc(S(=O)(=O)CCC(=O)N3CCOCC3)ccc21 showed viability equal to 106

The compound Cc1ccnc2c(N3C(=O)C4C5C=CC(C5)C4(C)C3=O)cccc12 (stereo unspecified) showed viability equal to 105

----------
assay: H69AR cell proliferation blockers – human, duplicate replicates, primary screen (AID 580); details: H69AR lung tumor cells viability, ATP luminescence, 72 h; at 10 µM; active compounds read low;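 further: 100% = mean luminescence of untreated wells and 0% = no signal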
measurementType: viability (%)
Kindly provide the numeric value in % only, without the unit symbol.

The molecule COc1ccc(-c2nn(-c3ccccc3)cc2/C=N/n2cnnc2)cc1OC showed viability equal to 79.8

The molecule Cc1ccccc1NC(=O)C1CCCN(S(=O)(=O)c2cnc[nH]2)C1 (stereo unspecified) showed viability equal to 92.6

The molecule CCCSC1=C(C#N)C(c2cc(OC)ccc2OC)CC(=O)N1 (stereo unspecified) showed viability equal to 89.1

The molecule N#Cc1nc(COc2ccccc2Cl)oc1N1CCCCCC1 showed viability equal to 93.1

The molecule CCOCCCNC(=O)C(NC(=O)c1ccccn1)c1ccc(C)cc1 (stereo unspecified) showed viability equal to 106

The molecule Fc1ccc(-c2ccc(-c3nn4c(-c5ccco5)nnc4s3)o2)cc1 showed viability equal to 79.7

The molecule Cc1ccc2nc(NC(=O)Cn3cc4c(n3)CCCCC4)sc2c1 showed viability equal to 93

The molecule COc1ccccc1NC(=O)C1(C)Cc2ccccc2C(=O)O1 (stereo unspecified) showed viability equal to 91.7

The molecule Cc1nnc2n(-c3ccc(Cl)cc3)c(=O)c3c4c(sc3n12)CN(C)CC4 showed viability equal to 91.6

The molecule CCOc1ccc(-c2cc(CCCC(=O)N3CCN(c4ccc(OC)cc4)CC3)no2)cc1 showed viability equal to 67.7

The molecule COC(=O)c1[nH]c2c(c1C)C(=O)CC(c1cc(OC)ccc1OC)C2 (stereo unspecified) showed viability equal to 14.9

The molecule CCCn1c(OC)nc2c1c(=O)n(C)c(=O)n2C showed viability equal to 94.4

The molecule CCCCCn1c(=O)[nH]c2cc(C(=O)NCCN3CCOCC3)ccc2c1=O showed viability equal to 105

The molecule O=C(Cn1nc(Cc2cccnc2)c2ccccc2c1=O)Nc1ccc2c(c1)OCO2 showed viability equal to 85.2

The molecule Cn1cnc2cc(NC(=O)c3ccc(Cl)cc3)ccc21 showed viability equal to 93

The molecule O=C(NC1CCN(Cc2ccccc2)CC1)C1CCN(S(=O)(=O)c2cccc3cccnc23)CC1 showed viability equal to 102

The molecule N#CC1=C(N)Oc2cc(O)ccc2C1C1CCCCC1 (stereo unspecified) showed viability equal to 12.2

The molecule Cc1cccc(-n2ncc3c(NCc4cccnc4)ncnc32)c1 showed viability equal to 88

The molecule CCOC(=O)C1=C(C)NC(=O)NC1c1ccc(OCCO)c(OC)c1 (stereo unspecified) showed viability equal to 92.1

The molecule CC1C(=O)C(C)C(c2cccs2)NC1c1cccs1 (stereo unspecified) showed viability equal to 104

The molecule C=C(C)Cn1c(N2CC(C)CC(C)C2)nc2c1c(=O)[nH]c(=O)n2C (stereo unspecified) showed viability equal to 83.2

The molecule CCOc1ccccc1C(=O)Nc1nnc(CC)s1 showed viability equal to 97

The molecule COc1ccc(C(=O)CN2C3=NCCCN3c3ccccc32)cc1OC showed viability equal to 82.4

The molecule CCOCCCNC(=O)Cn1cc2c(n1)CCCCC2 showed viability equal to 103

The molecule COc1cccc(C2CC(=O)Nc3cc4c(cc32)OCCO4)c1OC(C)C (stereo unspecified) showed viability equal to 41.2

The molecule CCOc1ccc2nc(Nc3nc4c(c(=O)[nH]3)CCC4)nc(C)c2c1 showed viability equal to 103

The molecule Cc1cccc(N(CC(=O)N2CCCC2)S(=O)(=O)c2ccccc2)c1C showed viability equal to 88.5

The molecule Cn1cc(C2NC(=O)c3c(sc4c3CCCC4)N2)c2ccccc21 (stereo unspecified) showed viability equal to 64.9

The molecule CCOc1ccccc1N1Cc2cc(C)c(C)cc2C1 showed viability equal to 88.1

The molecule Cc1ccccc1-n1c(Cn2c(=O)sc3ccccc32)nnc1SCC(=O)N1CCCC1 showed viability equal to 93.7

The molecule CC1CCCCN1CCNC(=O)c1ccc2c(=O)n(CCc3ccccc3)c(=O)[nH]c2c1 (stereo unspecified) showed viability equal to 93.5

The molecule CC(=O)c1ccc(OCC(O)CN2CCN(CCO)CC2)cc1 (stereo unspecified) showed viability equal to 96.3

The molecule CCN(CC)CCCN1C(=O)C(O)=C(C(=O)c2ccco2)C1c1ccc(C)o1 (stereo unspecified) showed viability equal to 85.4

The molecule Cc1ccc(S(=O)(=O)N2CCOCC2)cc1C(=O)Nc1nc(-c2cccnc2)cs1 showed viability equal to 103

The molecule COC(=O)c1cn(NC(=O)C2CCCO2)c(=O)c2ccccc12 (stereo unspecified) showed viability equal to 96.6

The molecule COC(=O)CSC1=NS(=O)(=O)c2ccccc21 showed viability equal to 62.6

The molecule O=C(NC(=O)c1cccc(F)c1)OC[C@@H]1CCCN2CCCC[C@H]12 showed viability equal to 96.5

The molecule Cc1nc2sc(C(c3cccs3)N3CCC(C(N)=O)CC3)c(O)n2n1 (stereo unspecified) showed viability equal to 91.8

The molecule NC(=O)CSc1cn(CCNC(=O)c2cccs2)c2ccccc12 showed viability equal to 93.4

The molecule CCn1c2ccccc2c2cc(Nc3cc(C)nc4ncnn34)ccc21 showed viability equal to 29.4

The molecule CCCCCCn1c(SCC(=O)OC)nc2c1c(=O)[nH]c(=O)n2C showed viability equal to 70.9

The molecule Cc1nc2ccc(S(=O)(=O)NC(C(=O)NCc3cccs3)C(C)C)cc2s1 (stereo unspecified) showed viability equal to 111

The molecule O=c1c(-c2ccccc2)coc2c(CN3CCOCC3)c(O)ccc12 showed viability equal to 99

The molecule COC(=O)C1CCN(C(=O)CSc2nnc(-c3ccncc3)o2)CC1 showed viability equal to 81.8

The molecule Cc1cccc(Cn2c(SCC(=O)Nc3ccccc3)nc3c2c(=O)[nH]c(=O)n3C)c1 showed viability equal to 81.8

The molecule O=C(Nc1nc2c(s1)CCCC2)C1COc2ccccc2O1 (stereo unspecified) showed viability equal to 88.3

----------
Hi there, I'd appreciate the recorded RAM network inhibition for every entry that follows.
assay: RAM signaling pathway blockade in yeast – S. cerevisiae, Pdr1DBD-CYC8 efflux-inhibited sensitized strain, primary screen (AID 1298);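 further: 0% = DMSO untreated cells without growth and 100% = 10 µM 1-NA-PP1 full growth; higher means more yeast growth rescued from 5-FOA killing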; settings: S. cerevisiae cbk1-as DSE1-URA3 strain, 5-FOA growth OD615, 2 d; at 50 µM; active compounds read high
Activity calls are given as the source filed them.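 The calls were made as follows: active = RAM network inhibition above 8.4% in each of two replicates, 3 SD over the compound average; inconclusive = above 8.4% inhibition in only one replicate; inactive = 8.4% inhibition or less in each replicate.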

The compound COc1cccc(CNC(=O)c2cc3ccccn3n2)c1 showed RAM network inhibition equal to -0.11% (inactive)

The compound O=C(CCN1C(=O)c2ccccc2C1=O)NCCN1CCOCC1 showed RAM network inhibition equal to 2.35% (inactive)

The compound O=C(CSc1oc(-c2ccccc2)nc1S(=O)(=O)c1ccc(F)cc1)NCC1CCCO1 (stereo unspecified) showed RAM network inhibition equal to 2.32% (inactive)

The compound CCN1CCN(CCCNC(=O)c2cc3sccc3n2CC)CC1 showed RAM network inhibition equal to 1.23% (inactive)

The compound CCCCN=CC1=C(O)C(C(=O)OC)C(C)(C)CC1=O (stereo unspecified) showed RAM network inhibition equal to 1.5% (inactive)

The compound O=C(CS(=O)(=O)Cc1ccccc1)Nc1nc2ccccc2s1 showed RAM network inhibition equal to 7.64% (inactive)

----------
experiment: S. cerevisiae growth inhibition in permissive medium (OD615), pilot counter-assay for S. cerevisiae lifespan shortening project, permissive growth control (AID 705); conditions: OD615, 24 h, at 10 µM, active compounds read high
measurementType: growth inhibition (%)
Kindly provide the numeric value in % only, without the unit symbol.

The molecule CCOC(=O)c1cc2c(=O)n3ccccc3nc2n(CCCOC)c1=NC(=O)C(C)(C)C showed growth inhibition equal to -11

The molecule Cc1ccc(-c2nnc3n2N=C(c2ccccc2)CS3)cc1 showed growth inhibition equal to -5.77

The molecule CCOC(=O)Cn1c(=O)oc2cc(S(=O)(=O)NCc3cccs3)ccc21 showed growth inhibition equal to -3.16

The molecule COc1ccc(-n2c(SCC(=O)Nc3nccs3)nc3c(c2=O)SCC3)cc1 showed growth inhibition equal to -1.01

The molecule Cc1ccc(CCP(=O)(O)CN2CCOCC2)cn1 showed growth inhibition equal to -11.9

The molecule c1csc(Cc2nc3ccccc3[nH]2)c1 showed growth inhibition equal to -8.51

The molecule O=C(C1CCCN1S(=O)(=O)c1cccc2cccnc12)N1CCn2c1nc1ccccc12 (stereo not drawn) showed growth inhibition equal to -4.09

The molecule CC1=C(C(=O)OC2CCCC2)C(c2ccc(C)o2)C2=C(CC(c3cccs3)CC2=O)N1 (stereo not drawn) showed growth inhibition equal to -3.79

The molecule Cc1cccc(C)c1OCC(O)Cn1ccnc1C (stereo not drawn) showed growth inhibition equal to 1.01

The molecule Cc1ccc(S(=O)(=O)N(CC(O)CN2CCCCC2)c2ccccc2)cc1 (stereo not drawn) showed growth inhibition equal to 0.475

The molecule COc1ccc(N(CC(=O)NC2CCCCCCC2)S(=O)(=O)c2c(C)nn(C)c2C)cc1 showed growth inhibition equal to -20.7

The molecule COc1ccc(OC)c2sc(NC(=O)C3COc4ccccc4O3)nc12 (stereo not drawn) showed growth inhibition equal to -19.7

The molecule CC(=O)Nc1cc(N2C(=O)CCC2=O)ccc1Cl showed growth inhibition equal to -10.2

The molecule Cn1c(=O)c2nnn(/N=C(\c3ccccc3)C3CC3)c2n(C)c1=O showed growth inhibition equal to -11.4

The molecule CC1CCN(C(=O)Cn2cc3c(n2)CCCC3)CC1 showed growth inhibition equal to -7.6

The molecule Cc1noc(C(=O)Nc2ccc3c(c2)OCO3)c1Cl showed growth inhibition equal to -0.74

The molecule O=C(Nc1ccc(Cl)cn1)c1cccnc1 showed growth inhibition equal to -8.23

The molecule COc1ccc2c(c1)OC1(C)CC2C(C(=O)c2ccccc2OC)C(=O)N1 (stereo not drawn) showed growth inhibition equal to -18.1

The molecule O=C(Nc1nnc(-c2ccc(Cl)cc2)o1)c1ccccc1Br showed growth inhibition equal to 0.92

The molecule COC(=O)C1(C)Nc2ccccc2C(=O)N1c1ccccc1C (stereo not drawn) showed growth inhibition equal to -7.67

The molecule Cc1ccc2c(c1)C(c1ccccc1)N(C(=O)c1ccc(Br)o1)CC(=O)N2 (stereo not drawn) showed growth inhibition equal to -8.12

The molecule Cn1cc(Cl)c(C(=O)N(Cc2ccccc2)c2ccccn2)n1 showed growth inhibition equal to -8.19

The molecule O=C(c1ccc(NS(=O)(=O)c2cccs2)cc1)N1CCCCC1 showed growth inhibition equal to 1.61
